A collection of molecules and their measured Share of metabolite from the total combined metabolite peak area
Test: In vitro metabolism in liver microsomes
Conditions: SC83288 metabolites, Monkey
MEASURE: Share of metabolite from the total combined metabolite peak area (%)

{"MOLECULE": "COC(=O)N1CCN(C(=N)c2cccc(NC(=O)Nc3ccc(S(N)(=O)=O)cc3)c2)CC1", "EXPERIMENTAL_RESULT": 72.3}
{"MOLECULE": "N=C(c1cccc(NC(=O)Nc2ccc(S(N)(=O)=O)cc2)c1)N1CCNCC1 [metabolite 2]", "EXPERIMENTAL_RESULT": 5.4}
{"MOLECULE": "N=C(c1cccc(NC(=O)Nc2ccc(S(=O)(=O)NCc3ccc(S(N)(=O)=O)cc3)cc2)c1)N1CCN(C=O)CC1", "EXPERIMENTAL_RESULT": 0.2}
{"MOLECULE": "N=C(c1cccc(NC(=O)Nc2ccc(S(=O)(=O)NCc3ccc(S(N)(=O)=O)cc3)cc2)c1)N1CCNCC1 [Metabolite 1]", "EXPERIMENTAL_RESULT": 16.2}

These data points were gathered from paper PMC5290327.
